Please go through the items and note down their clearance.
- Assay Info: Clearance in Sprague-Dawley rat at 0.6 mg/kg, iv
- Assay type: ADME, organism-based
- Test Context: in vivo
# value in mL/min/kg; strip the unit string

IN: // Input: Cc1cc(NC(=O)N2Cc3c(nn4c3C(=O)N(C)O[C@@H](CO)C4)C[C@H]2C)ccc1F . Output its clearance only.
OUT: 47

IN: // Input: C[C@@H]1Cc2nn3c(c2CN1C(=O)Nc1ccc(F)c(C(F)(F)F)c1)C(=O)N(C)O[C@@H](CO)C3 . Output its clearance only.
OUT: 24

IN: // Input: C[C@@H]1Cc2nn3c(c2CN1C(=O)Nc1ccc(F)c(C#N)c1)C(=O)N(C)O[C@@H](CO)C3 . Output its clearance only.
OUT: 66

----------
- Assay Info: Thermodynamic solubility of the compound at pH 7
- Format: physicochemical
- Test Context: buffer, read-out: Therm_solubility
Measured Property: solubility thermodynamic (µM)
# value in µM; strip the unit string

IN: // Input: C[C@@H]1Cc2nn3c(c2CN1C(=O)Nc1ccc(F)c(C(F)(F)F)c1)C(=O)N(C)O[C@@H](CO)C3 . Output its solubility thermodynamic only.
OUT: 172

IN: // Input: CN(OC1COC1)C(=O)c1n[nH]c2c1CN(C(=O)Nc1cccc(Cl)c1)CC2 . Output its solubility thermodynamic only.
OUT: 183

----------
- Assay Info: Oral bioavailability in CD1 mouse at 10 mg/kg
- Type: ADME, organism-based
- Test Context: in vivo
Measured Property: bioavailability (%)
# value in %; strip the unit string

IN: // Input: C[C@@H]1Cc2nn3c(c2CN1C(=O)Nc1ccc(F)c(C#N)c1)C(=O)N(C)O[C@@H](CF)C3 . Output its bioavailability only.
OUT: 66

----------
- Assay Info: Solubility of the compound
- Type: physicochemical
Measured Property: solubility
Enter the number, and then the unit.

IN: // Input: C[C@H]1Cc2[nH]nc(-c3cscn3)c2CN1C(=O)Nc1ccc(F)c(C#N)c1 . Output its solubility only.
OUT: 45 µM

----------
- Assay Info: Half life in Mongrel dog at 2.5 mg/kg, po or 1 mg/kg, iv
- Assay type: ADME, organism-based, Canis lupus familiaris
- Test Context: in vivo
Measured Property: half-life (h)
# value in h; strip the unit string

IN: // Input: C[C@@H]1Cc2nn3c(c2CN1C(=O)Nc1ccc(F)c(C#N)c1)C(=O)N(C)O[C@@H](CF)C3 . Output its half-life only.
OUT: 5.4

IN: // Input: C[C@@H]1Cc2nn3c(c2CN1C(=O)Nc1ccc(F)c(C#N)c1)C(=O)N(C)O[C@@H](COCC(F)F)C3 . Output its half-life only.
OUT: 5.6

----------
- Assay Info: Thermodynamic solubility of the compound at pH 7
- Format: physicochemical
- Test Context: buffer, read-out: Therm_solubility
Measured Property: solubility thermodynamic
Enter the number, and then the unit.

IN: // Input: C[C@@H]1Cc2nn3c(c2CN1C(=O)Nc1ccc(F)c(C#N)c1)C(=O)N(C)OCC3 . Output its solubility thermodynamic only.
OUT: 80 µM

IN: // Input: CN1OC(CO)Cn2nc3c(c2C1=O)CN(C(=O)Nc1ccc(F)c(Cl)c1)CC3 (racemic) . Output its solubility thermodynamic only.
OUT: 183 µM

IN: // Input: C[C@@H]1Cc2nn3c(c2CN1C(=O)Nc1ccc(F)c(Cl)c1)C(=O)N(C)O[C@@H](CO)C3 . Output its solubility thermodynamic only.
OUT: 183 µM

IN: // Input: C[C@@H]1Cc2nn3c(c2CN1C(=O)Nc1ccc(F)c(C#N)c1)C(=O)N(C)O[C@@H](COCC(F)F)C3 . Output its solubility thermodynamic only.
OUT: 22 µM
